# Test System: Cathepsin B (Homo sapiens, UniProt P07858)
We label by threshold. Values of IC50 strictly beneath 8 µM are label 1. Values of 8 µM and up are label 0.

As a guide, the following entries are already answered.
- CC(C)(C#N)NC(=O)[C@@H]1C[C@@H](S(=O)(=O)c2ccccc2)C[C@H]1C(=O)N1CCOCC1: label 0
- N#CC1(NC(=O)[C@@H]2C[C@@H](S(=O)(=O)c3ccccc3)C[C@H]2C(=O)N2CCNCC2)CC1: label 0
- N#CC1(NC(=O)[C@@H]2C[C@@H](S(=O)(=O)c3ccccc3)C[C@H]2C(=O)N2CC3CCC(C2)O3)CC1: label 0
- N#CC1(NC(=O)[C@@H]2C[C@@H](S(=O)(=O)c3ccccc3)C[C@H]2C(=O)N2CCCC2)CC1: label 1
- N#CC1(NC(=O)[C@@H]2C[C@@H](S(=O)(=O)c3ccccc3)C[C@H]2C(=O)N2CCS(=O)(=O)CC2)CC1: label 0

input: API: query returns whether the compound falls strictly under 8 µM in IC50. Query: CC1CCN(C(=O)[C@@H]2C[C@H](S(=O)(=O)c3ccccc3)C[C@H]2C(=O)NC2(C#N)CC2)CC1
output: label 1

input: API: query returns whether the compound falls strictly under 8 µM in IC50. Query: CN1CCN(C(=O)[C@@H]2C[C@H](S(=O)(=O)c3ccccc3)C[C@H]2C(=O)NC2(C#N)CC2)CC1
output: label 1

input: API: query returns whether the compound falls strictly under 8 µM in IC50. Query: N#CC1(NC(=O)[C@@H]2C[C@@H](S(=O)(=O)c3ccccc3)C[C@H]2C(=O)N2CCOCC2)CC1
output: label 0
